Data origin, for the record: paper PMC9482650

- EXPERIMENTAL SYSTEM: T1, SYNJ2BP, P57105
- T1 sequence (P57105 8-110, limits assumed, looked up): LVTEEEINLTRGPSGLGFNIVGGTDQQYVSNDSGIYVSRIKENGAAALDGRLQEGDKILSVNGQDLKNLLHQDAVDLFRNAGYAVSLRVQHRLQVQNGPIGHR
- RUN DESCRIPTION: holdup assay
- Parameters: key: below the threshold = too weak to quantify, mostly under pKd 3.1 to 4
- RUN PARAMETERS: plain residues with an end cap or a label only (N-terminal biotin on a linker: ado-ado)
ASSAY ENDPOINT: pKd

# BINDER, ASSAY ENDPOINT, RESULT
rows = [
    ("KPDKQEEFYA [SDC3, O75056]", "pKd", "below the threshold"),
    ("WAKEKQHTRL [SLC17A1, Q14916]", "pKd", "below the threshold"),
    ("NNMAFETTHF [SLC5A12, Q1EHB4]", "pKd", "below the threshold"),
    ("VKQYADVEGF [HNRNPK, P61978;P61978-2]", "pKd", "below the threshold"),
]

Form field: reported pKd of QRYPGNQTTC [CCL24, O00175] below the threshold

Reported pKd, binder LVEEEEPMNL [HDAC7, Q8WUI4] : ____ below the threshold

Form field: reported pKd of DFKHTKSFII [JAM2, P57087] below the threshold

Given the binder QLGSPTADLA [SIPA1, Q96FS4] , what is its reported pKd? below the threshold
